System: ACHN
protocol_text: NCI tumour cell line growth inhibition, 48 h
Calls of active or inactive are those of the source. No stated cut-off is given here; in the data, active = GI50 up to about 1.1 µM and inactive = higher.
Outcome codes: active, inactive

INSERT INTO assay_data (compound, category_label) VALUES
  ('N/C(S)=N/N=C/c1ncccc1O', 'active'),
  ('COC(=O)/C=C(\S/C(=N\n1cc(C(=O)OC)c(C(=O)OC)c1-c1ccc(C)cc1)c1ccc(C)cc1)C(=O)OC', 'inactive'),
  ('CC(C)OP(=O)(OC(C)C)/C(N)=N/Nc1ccc([N+](=O)[O-])cc1', 'inactive'),
  ('C=CCN(C)CN(C)c1nc(N(C)C)nc(N(C)C)n1', 'inactive'),
  ('CC1S/C(=N/c2nnc(-c3ccccc3)o2)NC1=O (centres undefined)', 'inactive'),
  ('Nc1nc(SCc2ccccn2)c2ncn(C3CCCC3)c2n1', 'inactive'),
  ('O=C1c2ccccc2C(=O)N1C/C=N/NS(=O)(=O)c1ccc(Br)cc1', 'inactive'),
  ('CCOC(=O)C(C)(C)/C=C\C(Cl)=C(Cl)Cl', 'inactive'),
  ('COc1ccc(C(=O)c2ccc(-n3c4ccccc4c4ccc5c(c43)C(=O)C=CC5=O)cc2)cc1', 'active'),
  ('C=C(C)[C@H]1C=C[C@@H](OC(=O)c2cccnc2)[C@@]23CO[C@@](C)([C@H](OC(=O)c4cccnc4)[C@@]4(OC(C)=O)C[C@H](C)[C@H](OCCC)[C@@H]4[C@H]2OC(C)=O)[C@H]13', 'inactive'),
  ('COc1ccc(CN=C(N)N)c2ccccc12', 'inactive'),
  ('CCOC1(OCC)N=C(N)C2(C#N)C3(C(=O)N(C(C)C)N=C3C)C12C#N (centres undefined)', 'inactive'),
  ('Clc1cccc(/C=N/C23CC4CC(CC(C4)C2)C3)c1Cl', 'inactive'),
  ('Nc1c(-c2cn(Cc3ccccc3)c3ccccc23)[n+]([O-])c2ccccc2[n+]1[O-]', 'inactive'),
  ('Cc1ccc(NC(=O)c2cccc(OP(=O)(O)Nc3ccc(C)cc3)c2)cc1', 'inactive'),
  ('CC(C)c1cccc(C(C)C)c1NC(=O)/C(CC(=O)CC(c1ccccc1)c1c(O)c2ccccc2oc1=O)=N/O (centres undefined)', 'inactive'),
  ('CN(C)/C=N/C1CCC(C(C)(C)C)CC1 (centres undefined)', 'inactive'),
  ('CN1C(c2ccccc2)=CC(=O)C(O)=C(c2ccccc2)S1(=O)=O', 'inactive'),
  ('COc1cc(OC)cc(Oc2nc3cc(F)c(F)cc3nc2-c2ccccc2)c1', 'inactive'),
  ('Cc1ccccc1S(=O)(=O)OC1NS(=O)(=O)c2ccccc21 (centres undefined)', 'inactive'),
  ('O=C(N/N=C/c1ccco1)c1cc(I)cc(I)c1O', 'inactive'),
  ('COC1(OC)C=CC(=O)C=C1', 'inactive'),
  ('O=C(Nc1nnc(S)[nH]1)C(=O)C(C(=O)c1ccc2ccccc2c1)C1OC(=O)c2ccccc21 (centres undefined)', 'inactive'),
  ('O=C(CSc1nc2ccccc2c(=O)n1-c1ccccc1)N/N=C1\C(=O)Nc2ccc(Br)cc21', 'inactive');

// provenance: ChEMBL document CHEMBL1201862
